Molecular target: A. baumannii ATP synthase (Acinetobacter baumannii, UniProt A3M139)
Construct: endogenous electron transport chains of inverted inner membrane vesicles were energized with NADH; endogenous in cells; host or cells: inverted inner membrane vesicles prepared from A. baumannii ATCC 17978 cells
Sequence (A3M139 whole entry): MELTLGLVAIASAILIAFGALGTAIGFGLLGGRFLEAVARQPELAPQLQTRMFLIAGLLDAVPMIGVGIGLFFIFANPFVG
Assay: AB ATP synthase inhibition: NADH-driven ATP synthesis in inverted inner membrane vesicles, luciferin/luciferase readout
Format: biochemical
Conditions: fit of ATP synthesis dose response curve
Note to self: values exactly at -0.8 are 1 (yes). So Hill coefficient (Hill slope) at or above -0.8 is 1 (yes), below is 0 (no).

Use the examples below as a reference point.
Cc1ccc(-c2cnc(SCc3ccccc3)c(CNCc3ccc(CN4CCCC4)cc3)c2)cc1
1 (yes)
COc1ccc(-c2cnc(SCc3ccccc3)c(CNCCC3CCN(C4CCCC4)CC3)c2)cc1
0 (no)

QUERY: Hello, I need to know if COc1ccc(-c2cnc(SCc3ccccc3)c(CNCCC3CCN(C4CCCC4)CC3)c2)cc1F has measured Hill coefficient (Hill slope) not below -0.8. Thanks!
RESULT: 1 (yes)

QUERY: Entry Fc1ccc(-c2cnc(SCc3ccccc3)c(CNCc3ccc(CN4CCCC4)cc3)c2)c(F)c1 : is its Hill coefficient (Hill slope) no less than -0.8?
RESULT: 0 (no)

QUERY: Hi team, for CCN1CCC(CCNCc2cc(-c3ccc(C)cc3)cnc2SCc2ccccc2)CC1 , is the recorded Hill coefficient (Hill slope) at or above -0.8?
RESULT: 1 (yes)

QUERY: Evaluate CN1CCN(CCNCc2cc(-c3ccc(N(C)C)cc3)cnc2SCc2ccccc2)CC1 : Hill coefficient (Hill slope) at minimum -0.8?
RESULT: 1 (yes)

QUERY: Tell me whether Hill coefficient (Hill slope) is at least -0.8 here: CCN1CCC(CCNCc2cc(Br)cnc2SCc2ccccc2)CC1
RESULT: 1 (yes)
